System: NCI-H460 lung
assay-procedure: NCI tumour cell line growth inhibition, 48 h

compound: c1cc(OCCN2CCCC2)ccc1CNc1ccc2nc(CCC3CCCCC3)[nH]c2c1
TGI: 4.87 µM
//
compound: COc1cccc(C2=NC(C(C)C)CO2)c1OC (centres undefined)
TGI: > 100 µM
//
compound: Cc1nnn(C)c1-c1cnc2c3ccc(C(C)(C)O)cc3n([C@H](c3ccccc3)C3CCOCC3)c2c1
TGI: > 65.7 µM
//
compound: O=Cc1ccc(-c2ccc(-c3nc4ccccc4s3)cc2)o1
TGI: > 100 µM

###

Tested on: ACHN renal
assay-procedure: NCI tumour cell line growth inhibition, 48 h
GI50 values by entry
value-kind: GI50

molecule: Cc1ccc(-c2cc(C(=O)Nc3ccc(S(=O)(=O)N4CCCCC4)cc3)[nH]n2)c(O)c1
value-kind: GI50
meas-value: > 100000 nM
--
molecule: CC[C@]12CN3CCc4c([nH]c5ccccc45)[C@@](C(=O)OC)(c4cc5c(cc4OC)N(C)[C@H]4[C@@](O)(C(=O)OC)[C@H](OC(C)=O)[C@]6(CC)C=CCN7CC[C@]54[C@@H]76)CC(C3)[C@H]1O2 (stereo not given in full)
value-kind: GI50
meas-value: 2140 nM
--
molecule: Cc1[nH]c(C(=O)Nc2ccc(C(=O)NCCN)cc2OC(C)C)c(Cl)c1Cl
value-kind: GI50
meas-value: 1670 nM
--
molecule: CC(C)[C@@]12C[C@@H](OC(=O)C3CO3)[C@@](C)(O1)[C@@H]1CC[C@@H](C)[C@H]1[C@@H]2OC(=O)/C=C/c1ccccc1 (stereo not given in full)
value-kind: GI50
meas-value: 2340 nM
--
molecule: COc1cccc2c1C(=O)c1c(O)c3c(c(O)c1C2=O)C[C@](O)(C(=O)CO)C[C@H]3O[C@@H]1C[C@@H](NC(=O)CCCN(C)C2(c3ccc(F)cc3)CC3CCC2C3)[C@H](O)[C@@H](C)O1 (stereo not given in full)
value-kind: GI50
meas-value: 736 nM
--
molecule: Clc1cc(Br)ccc1-c1ccc(CNCC2CCNCC2)o1
value-kind: GI50
meas-value: 1930 nM
--
molecule: COC(=O)[C@H](Cc1cn(C)cn1)NC(=O)[C@H](CC(C)C)NC(=O)Nc1cc(C(F)(F)F)cc(C(F)(F)F)c1
value-kind: GI50
meas-value: > 10000 nM
--
molecule: COc1cc2c3c(n(CCCN=[N+]=[N-])c(=O)c2cc1OC)-c1ccccc1C3=O
value-kind: GI50
meas-value: 1210 nM
--
molecule: COc1cc(-n2cc(-c3ccc(Cl)cc3)n(-c3ccccc3)c2=O)cc(OC)c1OC
value-kind: GI50
meas-value: 25800 nM
--
molecule: N#Cc1c(N)nc2c(c1-c1ccc(Cl)cc1)COc1ccc(F)cc1-2
value-kind: GI50
meas-value: 15900 nM

###

Test system: U251 CNS
assay-procedure: NCI tumour cell line growth inhibition, 48 h

compound: CSc1nc(-c2ccccc2)[nH]c(=O)n1
system-under-test: U251 CNS
TGI: > 100 µM
--
compound: CCCCCCCCCCCCCCCCn1cc[n+](C)c1
system-under-test: U251 CNS
TGI: 1.53 µM
--
compound: Nc1nc(Sc2ccc([N+](=O)[O-])c3nonc23)c2ncn(C3OC(CO)C(O)C3O)c2n1 (stereo not drawn)
system-under-test: U251 CNS
TGI: > 85.1 µM
--
compound: CCOC(=O)Cc1csc(NC(=O)C(OC(=O)c2ccc(Cl)cc2)c2ccccc2)n1 (stereo not drawn)
system-under-test: U251 CNS
TGI: > 100 µM
--
compound: C[N+]1(C(CO)Cc2c[nH]c3ccccc23)Cc2ccccc2C1 (stereo not drawn)
system-under-test: U251 CNS
TGI: > 100 µM
--
compound: CCCN(CCC)c1ccc(/C=N/NC(=O)c2cccnc2)c(C)c1
system-under-test: U251 CNS
TGI: 26 µM
--
compound: Cc1cccc(N=Nc2c(C)nn(C(=O)CC(=O)Nc3ccc(Cl)cc3)c2C)c1
system-under-test: U251 CNS
TGI: > 100 µM
--
compound: C[C@]12Cc3conc3C(O)=C1CC[C@@H]1C2CC[C@@]2(C)C1CC[C@@H]2O (stereo partly drawn)
system-under-test: U251 CNS
TGI: 64.4 µM
